The reported measurements were obtained from ChEMBL document CHEMBL1138008.

target: Metabotropic glutamate receptor 5 (Rattus norvegicus); assay: Percent occupancy of the Metabotropic glutamate receptor 5 by the [3H]3-methoxy-5-(pyridin-2-ylethynyl)pyridine ligand 1 hr post-administration of 10 mg/kg compound ip; assay type: organism-based; parameters: dose 10 mg/kg
Kind request: treat 60% as inclusive, so Occupancy at 60% or higher is Yes, anything lower is No.

N#Cc1cc(F)cc(-n2nnc(-c3ccccn3)n2)c1 ... Yes
N#Cc1cccc(-n2nnc(-c3ccccn3)n2)c1 ... Yes
Fc1cc(Sc2cccnc2)cc(-n2nnc(-c3ccccn3)n2)c1 ... Yes
Fc1cc(Cc2cccnc2)cc(-n2nnc(-c3ccccn3)n2)c1 ... No

Moving on to another compound below.
Does the reported Occupancy for CN(c1cccnc1)c1cc(F)cc(-n2nnc(-c3ccccn3)n2)c1 fall at or above the 60% mark? No
